All figures here come from paper PMC10053770.

Assay: Clinical pharmacokinetics in patients with metastatic pancreatic ductal adenocarcinoma
Type: in vivo, human
Conditions: human; pancreatic cancer patients, 3.2 mg/kg IV, plasma; Cycle 6 Day 1 with nab-paclitaxel+gemcitabine; mean, N=5; read-out: Cmax
Reported Property: Cmax (ng/mL)
Reply with just the number (in ng/mL).

Can you look up the measured Cmax of "CC(=O)N[C@H]1CSSC[C@@H](C(N)=O)NC(=O)[C@H](CC(=O)O)NC(=O)[C@@H]2CCCN2C(=O)CNC(=O)[C@H](CCCCN)NC(=O)[C@H](CC(=O)O)NC(=O)CNC(=O)[C@H](CCCNC(=N)N)NC1=O" for me?
25800

----------
Assay: Single-dose intravenous pharmacokinetics in mice
Assay type: in vivo, mouse
Settings: male; BALB/c mouse, M, n=3, 1.5 mg/kg single IV; plasma LC/MS/MS, non-compartmental; one time point per animal; read-out: Cl_obs (converted)
Reported Property: clearance (L/h/kg)
Answer with a number only, understood to be in L/h/kg.

Which value of clearance has been reported for "CC(=O)N[C@H]1CSSC[C@@H](C(N)=O)NC(=O)[C@H](CC(=O)O)NC(=O)[C@@H]2CCCN2C(=O)CNC(=O)[C@H](CCCCN)NC(=O)[C@H](CC(=O)O)NC(=O)CNC(=O)[C@H](CCCNC(=N)N)NC1=O" in the records?
1.02

----------
Test: Single-dose intravenous pharmacokinetics in cynomolgus monkeys
Assay type: in vivo
Settings: male; cynomolgus monkey, M, n=3, 5 mg/kg single IV; plasma LC/MS/MS, non-compartmental; mean (SD)
Reported Property: C0
Report as: number unit

Which C0 value is on record for "CC(=O)N[C@H]1CSSC[C@@H](C(N)=O)NC(=O)[C@H](CC(=O)O)NC(=O)[C@@H]2CCCN2C(=O)CNC(=O)[C@H](CCCCN)NC(=O)[C@H](CC(=O)O)NC(=O)CNC(=O)[C@H](CCCNC(=N)N)NC1=O" ?
55.1 µg/mL

----------
Assay: Single-dose intravenous pharmacokinetics in dogs
Format: in vivo, dog
Details: male; Beagle dog, M, n=3, 1 mg/kg single IV; plasma LC/MS/MS, non-compartmental; mean (SD); read-out: V
Reported Property: Vd (L/kg)
Please give a number only; it is taken to be in L/kg.

Given "CC(=O)N[C@H]1CSSC[C@@H](C(N)=O)NC(=O)[C@H](CC(=O)O)NC(=O)[C@@H]2CCCN2C(=O)CNC(=O)[C@H](CCCCN)NC(=O)[C@H](CC(=O)O)NC(=O)CNC(=O)[C@H](CCCNC(=N)N)NC1=O" , state its recorded Vd.
0.241

----------
Assay: Single-dose intravenous pharmacokinetics in dogs
Type: in vivo, dog
Conditions: male; Beagle dog, M, n=3, 5 mg/kg single IV; plasma LC/MS/MS, non-compartmental; mean (SD)
Reported Property: C0 (ng/mL)
Output spec: scalar in ng/mL, unitless text.

So what does the record say about C0 for CC(=O)N[C@H]1CSSC[C@@H](C(N)=O)NC(=O)[C@H](CC(=O)O)NC(=O)[C@@H]2CCCN2C(=O)CNC(=O)[C@H](CCCCN)NC(=O)[C@H](CC(=O)O)NC(=O)CNC(=O)[C@H](CCCNC(=N)N)NC1=O [CEND-1] ?
30200

----------
Assay: Single-dose intravenous pharmacokinetics in cynomolgus monkeys
Format: in vivo
Settings: male; cynomolgus monkey, M, n=3, 5 mg/kg single IV; plasma LC/MS/MS, non-compartmental; mean (SD); read-out: t1/2 (converted)
Reported Property: half-life

Request the reported half-life associated with "CC(=O)N[C@H]1CSSC[C@@H](C(N)=O)NC(=O)[C@H](CC(=O)O)NC(=O)[C@@H]2CCCN2C(=O)CNC(=O)[C@H](CCCCN)NC(=O)[C@H](CC(=O)O)NC(=O)CNC(=O)[C@H](CCCNC(=N)N)NC1=O"
53.3 min
